Values from patent US20160303102A1

assay: Solubility of exemplary therapeutic agents in organic solvents; details: solvent Ethyl formate
Where a name gives a salt, the structure may show the parent alone.

# COMPOUND, Solubility
rows = [
    ("CC(C)c1nc(N(C)S(C)(=O)=O)nc(-c2ccc(F)cc2)c1/C=C/[C@@H](O)C[C@@H](O)CC(=O)O", "soluble"),
    ("OCCOCCN1CCN(C2=Nc3ccccc3Sc3ccccc32)CC1 [Quetiapine fumarate]", "non-soluble"),
    ("CN1C[C@H]2c3ccccc3Oc3ccc(Cl)cc3[C@@H]2C1 (relative stereo) [Asenapine maleate]", "soluble"),
    ("CNCC[C@H](Oc1cccc2ccccc12)c1cccs1 [Duloxetine HCl]", "non-soluble"),
    ("O=C1CCc2ccc(OCCCCN3CCN(c4cccc(Cl)c4Cl)CC3)cc2N1", "soluble"),
    ("O=C(c1ccc(OCCN2CCCCC2)cc1)c1c(-c2ccc(O)cc2)sc2cc(O)ccc12 [Raloxifene HCl]", "non-soluble"),
]

====

assay: Solubility of exemplary therapeutic agents in organic solvents; details: solvent EMK
Counter-ions that a name gives are not always drawn.
ASSAY_METRIC: Solubility

# MOLECULE, READOUT_VALUE
rows = [
    ("CN1C[C@H]2c3ccccc3Oc3ccc(Cl)cc3[C@@H]2C1 (relative stereo) [Asenapine maleate]", "soluble"),
    ("OCCOCCN1CCN(C2=Nc3ccccc3Sc3ccccc32)CC1 [Quetiapine fumarate]", "non-soluble"),
    ("CC(C)c1nc(N(C)S(C)(=O)=O)nc(-c2ccc(F)cc2)c1/C=C/[C@@H](O)C[C@@H](O)CC(=O)O [Rosuvastatin Ca]", "soluble"),
    ("O=C1CCc2ccc(OCCCCN3CCN(c4cccc(Cl)c4Cl)CC3)cc2N1 [Aripiprazole]", "soluble"),
    ("O=C(c1ccc(OCCN2CCCCC2)cc1)c1c(-c2ccc(O)cc2)sc2cc(O)ccc12 [Raloxifene HCl]", "non-soluble"),
    ("CNCC[C@H](Oc1cccc2ccccc12)c1cccs1 [Duloxetine HCl]", "non-soluble"),
]

====

test: Solubility of exemplary therapeutic agents in organic solvents; conditions: solvent Ethanol
Where a name gives a salt, the structure may show the parent alone.
ASSAY_METRIC: Solubility

# COMPOUND, ASSAY_METRIC, READOUT_VALUE
data = [
    ("CNCC[C@H](Oc1cccc2ccccc12)c1cccs1 [Duloxetine HCl]", "Solubility", "soluble"),
    ("O=C(c1ccc(OCCN2CCCCC2)cc1)c1c(-c2ccc(O)cc2)sc2cc(O)ccc12 [Raloxifene HCl]", "Solubility", "non-soluble"),
    ("CC(C)c1nc(N(C)S(C)(=O)=O)nc(-c2ccc(F)cc2)c1/C=C/[C@@H](O)C[C@@H](O)CC(=O)O [Rosuvastatin Ca]", "Solubility", "non-soluble"),
    ("CN1C[C@H]2c3ccccc3Oc3ccc(Cl)cc3[C@@H]2C1 (relative stereo) [Asenapine maleate]", "Solubility", "soluble"),
    ("O=C1CCc2ccc(OCCCCN3CCN(c4cccc(Cl)c4Cl)CC3)cc2N1 [Aripiprazole]", "Solubility", "non-soluble"),
    ("OCCOCCN1CCN(C2=Nc3ccccc3Sc3ccccc32)CC1 [Quetiapine fumarate]", "Solubility", "non-soluble"),
]

====

assay: Solubility of exemplary therapeutic agents in organic solvents; conditions: solvent Isopropyl formate
Structures can show the parent of a compound that is named as a salt.

# MOLECULE, Solubility
records = [
    ("CC(C)c1nc(N(C)S(C)(=O)=O)nc(-c2ccc(F)cc2)c1/C=C/[C@@H](O)C[C@@H](O)CC(=O)O", "non-soluble"),
    ("O=C1CCc2ccc(OCCCCN3CCN(c4cccc(Cl)c4Cl)CC3)cc2N1", "soluble"),
    ("CN1C[C@H]2c3ccccc3Oc3ccc(Cl)cc3[C@@H]2C1 (relative stereo) [Asenapine maleate]", "soluble"),
    ("O=C(c1ccc(OCCN2CCCCC2)cc1)c1c(-c2ccc(O)cc2)sc2cc(O)ccc12 [Raloxifene HCl]", "non-soluble"),
]
